Biological target: VIP receptor of guinea pig lung membranes (guinea pig)
Experiment: competition with 0.01 nM 125I-VIP, guinea pig lung membranes
Readout kind: pKi
# pKi is unitless: minus log10 of the molar concentration; print number only

Req: Query: pKi; subject: HSDAVFTDNYTRLRKQMAVKKYLNSILNC (C-terminal C(BAT): S-(N6,N9-bis(2-mercapto-2-methylpropyl)-6,9-diazanonan-1-yl)cysteine; C-terminal amide; non-radioactive ReO complexed to the chelating moiety) [ReO-complexed P917]
Resp: 8.17
